Assay Name: Compound 122 saliva concentrations in healthy human subjects after oral administration (HPLC-MS/MS)
Type: in vivo
Test Parameters: human, saliva, po, 10 mg, PM; Day 1; 10 mg q.d. oral; 24 hr; read-out: Mean saliva concentration, PM, Mean ± SD
Parameter: concentration at 24 h (ng/mL)
Report the figure in ng/mL without appending any unit label.

Lookup result for COc1ccc(OC(F)(F)F)cc1CNC1CCCNC1c1ccccc1 (stereo not shown) ; measured concentration at 24 h: 1.05

----------
Assay Name: Compound 122 saliva concentrations in healthy human subjects after oral administration (HPLC-MS/MS)
Type: in vivo
Test Parameters: human, saliva, po, 30 mg, EM; Day 16; 30 mg b.i.d. oral; 24 hr; read-out: Mean saliva concentration, EM, Mean ± SD
Procedure: Stock solutions of Compound 122-HCl salt and internal standard 2-difluoromethoxy-5-trifluoromethoxy-benzyl)-(2-phenyl-piperidin-3-yl)-amine] […] The analysis was performed on a Perkin Elmer SCIEX API 3000 triple quadrupole mass spectrometer operated in the positive ion mode. […] Analyte and IS responses were measured using multiple reaction monitoring (MRM). […] Product ions at m/z 160.0 were monitored for both drug and IS runs. […]
Parameter: concentration at 24 h (ng/mL)
# output: bare number, implied unit ng/mL

// concentration at 24 h value for COc1ccc(OC(F)(F)F)cc1CNC1CCCNC1c1ccccc1 (stereo not shown) [Compound 122] : 5.08

----------
Assay Name: Compound 122 saliva concentrations in healthy human subjects after oral administration (HPLC-MS/MS)
Type: in vivo
Test Parameters: human, saliva, po, 10 mg, EM + paroxetine; Day 6; 10 mg b.i.d. oral; 24 hr; read-out: Mean saliva concentration, EM + paroxetine, Mean ± SD
Parameter: concentration at 24 h (ng/mL)
Answer in ng/mL, number only, no unit symbol.

Entry under test: COc1ccc(OC(F)(F)F)cc1CNC1CCCNC1c1ccccc1 (stereo not shown) [Compound 122] . Its concentration at 24 h was 2.16

----------
Assay Name: Compound 122 saliva concentrations in healthy human subjects after oral administration (HPLC-MS/MS)
Format: in vivo
Test Parameters: human, saliva, po, 10 mg, EM; Day 1; 10 mg q.d. oral; 8 hr; read-out: Mean saliva concentration, EM, Mean ± SD
Parameter: concentration at 8 h (ng/mL)
Output spec: scalar in ng/mL, unitless text.

The molecule identified as COc1ccc(OC(F)(F)F)cc1CNC1CCCNC1c1ccccc1 (stereo not shown) [Compound 122] registered its concentration at 8 h at 0.313

----------
Assay Name: Compound 122 saliva concentrations in healthy human subjects after oral administration (HPLC-MS/MS)
Assay type: in vivo
Test Parameters: human, saliva, po, 10 mg, EM; Day 6; 10 mg b.i.d. oral; 8 hr; read-out: Mean saliva concentration, EM, Mean ± SD
Parameter: concentration at 8 h (ng/mL)
Provide only the numeric value, understood in ng/mL.

Consider COc1ccc(OC(F)(F)F)cc1CNC1CCCNC1c1ccccc1 (stereo not shown) . Its measured concentration at 8 h is 0.805

----------
Assay Name: Compound 122 saliva concentrations in healthy human subjects after oral administration (HPLC-MS/MS)
Assay type: in vivo
Test Parameters: human, saliva, po, 10 mg, PM; Day 1; 10 mg q.d. oral; 2 hr; read-out: Mean saliva concentration, PM, Mean ± SD
Parameter: concentration at 2 h (ng/mL)
Supply the numeric figure in ng/mL, leaving out any unit text.

Entry COc1ccc(OC(F)(F)F)cc1CNC1CCCNC1c1ccccc1 (stereo not shown) [Compound 122] — recorded concentration at 2 h = 0.517

----------
Assay Name: Compound 122 saliva concentrations in healthy human subjects after oral administration (HPLC-MS/MS)
Type: in vivo
Test Parameters: human, saliva, po, 100 mg q.d., EM; Day 21; 100 mg q.d. oral; 24 hr; read-out: Mean saliva concentration, EM, Mean ± SD
Parameter: concentration at 24 h (µg/mL)
Reply numerically in µg/mL, unit not repeated.

concentration at 24 h for COc1ccc(OC(F)(F)F)cc1CNC1CCCNC1c1ccccc1 (stereo not shown) is 0.0125

----------
Assay Name: Compound 122 saliva concentrations in healthy human subjects after oral administration (HPLC-MS/MS)
Format: in vivo
Test Parameters: human, saliva, po, 30 mg, PM; Day 16; 30 mg b.i.d. oral; 4 hr; read-out: Mean saliva concentration, PM, Mean ± SD
Parameter: concentration at 4 h (µg/mL)
I only need the number, in µg/mL, no unit after it.

COc1ccc(OC(F)(F)F)cc1CNC1CCCNC1c1ccccc1 (stereo not shown) [Compound 122] has a reported concentration at 4 h of 0.0129

----------
Assay Name: Compound 122 saliva concentrations in healthy human subjects after oral administration (HPLC-MS/MS)
Type: in vivo
Test Parameters: human, saliva, po, 10 mg, PM; Day 6; 10 mg b.i.d. oral; 0 hr; read-out: Mean saliva concentration, PM, Mean ± SD
Parameter: concentration at 0 h (ng/mL)
Express your answer in ng/mL, writing the number without its unit.

Kindly note the recorded concentration at 0 h for COc1ccc(OC(F)(F)F)cc1CNC1CCCNC1c1ccccc1 (stereo not shown) , which is 2.93

----------
Assay Name: Compound 122 saliva concentrations in healthy human subjects after oral administration (HPLC-MS/MS)
Assay type: in vivo
Test Parameters: human, saliva, po, 100 mg, PM; Day 21; 100 mg q.d. oral; 2 hr; read-out: Mean saliva concentration, PM, Mean ± SD
Parameter: concentration at 2 h (ng/mL)
Lab book: enter the figure in ng/mL, no units written.

According to the records, this molecule COc1ccc(OC(F)(F)F)cc1CNC1CCCNC1c1ccccc1 (stereo not shown) displays concentration at 2 h of 23.1

----------
Assay Name: Compound 122 saliva concentrations in healthy human subjects after oral administration (HPLC-MS/MS)
Type: in vivo
Test Parameters: human, saliva, po, 10 mg, EM + paroxetine; Day 1; 10 mg q.d. oral; 8 hr; read-out: Mean saliva concentration, EM + paroxetine, Mean ± SD
Parameter: concentration at 8 h
Note to self: number, then unit, no commentary.

The compound identified as COc1ccc(OC(F)(F)F)cc1CNC1CCCNC1c1ccccc1 (stereo not shown) registered its concentration at 8 h at 0.533 ng/mL

----------
Assay Name: Compound 122 saliva concentrations in healthy human subjects after oral administration (HPLC-MS/MS)
Type: in vivo
Test Parameters: human, saliva, po, 30 mg, EM + paroxetine; Day 16; 30 mg b.i.d. oral; 4 hr; read-out: Mean saliva concentration, EM + paroxetine, Mean ± SD
Parameter: concentration at 4 h (ng/mL)
Could you give me the number in ng/mL? Just the number is fine.

Lab note: measured concentration at 4 h of COc1ccc(OC(F)(F)F)cc1CNC1CCCNC1c1ccccc1 (stereo not shown) was 10

----------
Assay Name: Compound 122 saliva concentrations in healthy human subjects after oral administration (HPLC-MS/MS)
Format: in vivo
Test Parameters: human, saliva, po, 30 mg, EM; Day 16; 30 mg b.i.d. oral; 2 hr; read-out: Mean saliva concentration, EM, Mean ± SD
Parameter: concentration at 2 h (ng/mL)
// units = ng/mL; emit number, no label

Input COc1ccc(OC(F)(F)F)cc1CNC1CCCNC1c1ccccc1 (stereo not shown) . Output concentration at 2 h: 2.91

----------
Assay Name: Compound 122 saliva concentrations in healthy human subjects after oral administration (HPLC-MS/MS)
Format: in vivo
Test Parameters: human, saliva, po, 10 mg, PM; Day 1; 10 mg q.d. oral; 8 hr; read-out: Mean saliva concentration, PM, Mean ± SD
Parameter: concentration at 8 h (ng/mL)
The response must be a number in ng/mL with no trailing unit.

The compound listed as COc1ccc(OC(F)(F)F)cc1CNC1CCCNC1c1ccccc1 (stereo not shown) has a reported concentration at 8 h of 2.31

----------
Assay Name: Compound 122 saliva concentrations in healthy human subjects after oral administration (HPLC-MS/MS)
Format: in vivo
Test Parameters: human, saliva, po, 10 mg, EM; Day 6; 10 mg b.i.d. oral; 2 hr; read-out: Mean saliva concentration, EM, Mean ± SD
Parameter: concentration at 2 h (ng/mL)
Write the number in ng/mL without appending the unit.

Summary for this compound, COc1ccc(OC(F)(F)F)cc1CNC1CCCNC1c1ccccc1 (stereo not shown) : concentration at 2 h is 0.541

----------
Assay Name: Compound 122 saliva concentrations in healthy human subjects after oral administration (HPLC-MS/MS)
Type: in vivo
Test Parameters: human, saliva, po, 10 mg, PM; Day 6; 10 mg b.i.d. oral; 2 hr; read-out: Mean saliva concentration, PM, Mean ± SD
Parameter: concentration at 2 h (ng/mL)
Dear colleague, please return just the value in ng/mL, with no unit written.

Notebook: COc1ccc(OC(F)(F)F)cc1CNC1CCCNC1c1ccccc1 (stereo not shown) , concentration at 2 h read as 2.85
